- systemTested: PHD2 (Homo sapiens, UniProt Q9GZT9)
- Construct: FLAG-tagged full length PHD2 expressed in and purified from baculovirus-infected Sf9 cells; FLAG; made in house; host or cells: baculovirus-infected Sf9 cells
- Sequence (Q9GZT9 whole entry): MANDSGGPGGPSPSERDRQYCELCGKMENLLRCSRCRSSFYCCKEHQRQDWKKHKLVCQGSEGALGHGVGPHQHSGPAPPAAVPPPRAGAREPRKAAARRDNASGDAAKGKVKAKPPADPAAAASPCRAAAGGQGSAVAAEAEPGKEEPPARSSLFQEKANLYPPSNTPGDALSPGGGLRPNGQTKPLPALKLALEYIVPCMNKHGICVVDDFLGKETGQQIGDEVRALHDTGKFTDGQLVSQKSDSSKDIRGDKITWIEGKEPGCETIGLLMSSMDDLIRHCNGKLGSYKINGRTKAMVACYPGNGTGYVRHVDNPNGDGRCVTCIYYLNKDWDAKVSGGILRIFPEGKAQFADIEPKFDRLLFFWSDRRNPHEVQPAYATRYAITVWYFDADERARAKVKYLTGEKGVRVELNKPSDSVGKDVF
- assayProcedure: PHD2 / HIF-1α peptide hydroxylation assay, time resolved fluorescence (VHL complex detection)
- Assay type: biochemical
- conditionLabel: FLAG-tagged full length PHD2; 0.2 μM 2-oxoglutarate, 0.5 μM HIF-1α peptide; read-out: PHD2 Activity (PHD2 binding activity expressed as IC50 (nM))
Structures can show the parent of a compound that is named as a salt.
quantityMeasured: IC50

O=C(N[C@@H]1CONC1=O)c1cnc(-n2cccn2)nc1O [Example 83]    100 to 1000 nM
O=C(N[C@H](c1ccccc1)[C@@H](O)c1ccccc1)c1cnc(-n2cccn2)nc1O [Example 120]    ≤ 10 nM
C[C@H](NC(=O)c1cnc(-c2cccnn2)nc1O)c1ccc(Oc2ccccc2)cc1 [Example 137]    ≤ 10 nM
CC(C)(NC(=O)c1cnc(-n2cccn2)nc1O)c1ccc(Br)cc1 [Example 92]    ≤ 10 nM
COc1ccc(C(NC(=O)c2cnc(-c3cccnn3)nc2O)c2ccc(C#N)cc2)c(OC)c1 (single isomer, unassigned) [Example 155]    ≤ 10 nM
Cc1cc(C)n(-c2ncc(C(=O)NCc3ccc(OC(F)(F)F)cc3)c(O)n2)n1 [Example 44]    100 to 1000 nM
COc1ccc(C(NC(=O)c2cnc(-n3cccn3)nc2O)c2ccc(OC)nc2)cc1 (stereo not shown) [Example 167, trifluoroacetate]    ≤ 10 nM
N#Cc1ccc(C(NC(=O)c2cnc(-c3cccnn3)nc2O)C2CCCCC2)cc1 (single isomer, unassigned) [Example 163]    ≤ 10 nM

// batch mode: one IC50 value per listed entry
1. Cc1cccc(-c2ncc(C(=O)NCc3ccc(Cl)cc3Cl)c(O)n2)n1 [Example 17]
2. COc1ccc(CC(NC(=O)c2cnc(-c3cccnn3)nc2O)c2ccc(C#N)cc2)cc1 (single isomer, unassigned) [Example 160]
3. Cc1nc(-c2ncc(C(=O)Nc3ccc(C(F)(F)F)cc3)c(O)n2)cs1 [Example 34]
4. COc1ccc(C(NC(=O)c2cnc(-c3cccnn3)nc2O)c2ccc(OC)cc2OC)c(OC)c1 [Example 174]
5. O=C(NCc1ccc(F)cc1)c1cnc(-c2ccc(C(F)(F)F)cn2)nc1O [Example 11]
6. COc1ccc(C(NC(=O)c2cnc(-c3cccnn3)nc2O)c2ccc(C#N)cc2)cc1 (single isomer, unassigned) [Example 150]
7. Cc1ccc(CNC(=O)c2cnc(-n3cccn3)nc2O)cc1 [Example 77]
8. COCc1ccc(C(NC(=O)c2cnc(-c3cccnn3)nc2O)c2ccc(OC)cc2)cc1 (single isomer, unassigned) [Example 182]

Solution:
["100 to 1000 nM", "10 to 100 nM", "1000 to 10000 nM", "≤ 10 nM", "1000 to 10000 nM", "≤ 10 nM", "10 to 100 nM", "≤ 10 nM"]

Batch: IC50 for all items listed.
1. Cc1nc(-c2ncc(C(=O)NCc3ccc(OC(F)(F)F)cc3)c(O)n2)cs1 [Example 31]
2. COc1ccc(C(NC(=O)c2cnc(-c3cccnn3)nc2O)c2nc(C)cs2)cc1 (single isomer, unassigned) [Example 144]
3. C[C@@H](NC(=O)[C@H](NC(=O)c1cnc(-n2cccn2)nc1O)c1ccccc1)c1ccccc1 [Example 180]
4. Cc1ccccc1Oc1ccc(CNC(=O)c2cnc(-n3cccn3)nc2O)cc1 [Example 100]
5. COc1ccc(C(NC(=O)c2cnc(-c3cccnn3)nc2O)c2ccc3ccccc3n2)cc1 (stereo not shown) [Example 171]
6. COC(=O)c1ccc(CNC(=O)c2cnc(-n3cccn3)nc2O)cc1 [Example 103]
7. CC(C)(NC(=O)c1cnc(-n2cccn2)nc1O)c1ccc(C(F)(F)F)nc1 [Example 74]
8. Cc1cccc(-c2ncc(C(=O)NCc3ccc(-c4ccccc4)cc3)c(O)n2)n1 [Example 15]

Solution:
["100 to 1000 nM", "≤ 10 nM", "10 to 100 nM", "≤ 10 nM", "≤ 10 nM", "10 to 100 nM", "≤ 10 nM", "100 to 1000 nM"]

---

- systemTested: PHD2 (Homo sapiens, UniProt Q9GZT9)
- Construct: FLAG-tagged full length PHD2 expressed in and purified from baculovirus-infected Sf9 cells; FLAG; made in house; host or cells: baculovirus-infected Sf9 cells
- assayProcedure: PHD2 / HIF-1α peptide hydroxylation assay, time resolved fluorescence (VHL complex detection)
- Format: biochemical
- conditionLabel: FLAG-tagged full length PHD2; 0.2 μM 2-oxoglutarate, 0.5 μM HIF-1α peptide; read-out: PHD2 Activity (PHD2 binding activity expressed as IC50 (nM))
- Procedure: To each well of a 96-well plate was added 1 μL of test compound in DMSO and 20 μl of assay buffer (50 mM Tris pH 7.4/0.01% Tween-20/0.1 mg/ml bovine serum albumin/10 μM ferrous sulfate/1 mM sodium ascorbate/20 μg/ml catalase) containing 0.15 μg/ml FLAG-tagged full length PHD2 expressed in and purified from baculovirus-infected Sf9 cells. […]
Where a name gives a salt, the structure may show the parent alone.
quantityMeasured: IC50

Example cases with answers are listed next.
CCN(NC(=O)c1cnc(-n2cccn2)nc1O)c1ccccc1 [Example 76, trifluoroacetate]    10 to 100 nM
CC(O)c1ccc(C(NC(=O)c2cnc(-c3cccnn3)nc2O)c2ccc(Cl)cc2)cc1 (stereo not shown) [Example 179]    ≤ 10 nM
O=C(NCc1ccc(-c2ccccc2)nc1)c1cnc(-n2cccn2)nc1O [Example 105]    ≤ 10 nM
O=C(c1ccccc1)c1ccc(CNC(=O)c2cnc(-n3cccn3)nc2O)cc1 [Example 95]    ≤ 10 nM
O=C(NCc1cccc(-c2ccccc2)c1)c1cnc(-n2cccn2)nc1O [Example 53]    ≤ 10 nM

Would you be so kind as to report IC50 for each listed record?
1. O=C(NC(c1ccccc1)c1ccccc1)c1cnc(-n2cncn2)nc1O [Example 46]
2. Cc1nc(-c2ncc(C(=O)NC(C)(C)C)c(O)n2)cs1 [Example 40]
3. O=C(NC(c1ccccc1)c1ccccn1)c1cnc(-c2cccnn2)nc1O (stereo not shown) [Example 136, trifluoroacetate]
4. CC(C)(NC(=O)c1cnc(-n2cccn2)nc1O)C(=O)N1CCc2ccccc21 [Example 189]
5. O=C(N[C@H](c1ccccc1)[C@@H](O)c1ccccc1)c1cnc(-c2cccnn2)nc1O [Example 138]
6. C[C@H](NC(=O)c1cnc(-n2cccn2)nc1O)c1ccc2ccccc2c1 [Example 121]
7. C[C@H](NC(=O)c1cnc(-n2cccn2)nc1O)c1ccc2c(c1)OCCO2 [Example 132]

Solution:
1. 100 to 1000 nM
2. 100 to 1000 nM
3. ≤ 10 nM
4. ≤ 10 nM
5. ≤ 10 nM
6. ≤ 10 nM
7. ≤ 10 nM

Give IC50 for each of the items listed below.
1. C[C@H](NC(=O)c1cnc(-c2cccnn2)nc1O)c1ccc(-c2cccnc2)cc1 [Example 187, trifluoroacetate]
2. CC(NC(=O)c1cnc(-n2cccn2)nc1O)c1ccccn1 (stereo not shown) [Example 118]
3. C[C@H](NC(=O)c1cnc(-c2cccnn2)nc1O)c1ccc(-c2cccc3cnccc23)cc1 [Example 185]
4. CC[C@H](NC(=O)c1cnc(-c2nc(C)cs2)nc1O)c1ccccc1 [Example 41]
5. O=C(NCc1cnc(Cl)cn1)c1cnc(-n2cccn2)nc1O [Example 64]
6. O=C(NC1(c2ccccc2)CC1)c1cnc(-n2cccn2)nc1O [Example 87]
7. Cc1ccc(Oc2ccc(CNC(=O)c3cnc(-n4cccn4)nc3O)cc2)cc1 [Example 97]
8. O=C(NCc1ccc2c(c1)CCO2)c1cnc(-n2cccn2)nc1O [Example 101]

Solution:
1: ≤ 10 nM; 2: 10 to 100 nM; 3: ≤ 10 nM; 4: 100 to 1000 nM; 5: 10 to 100 nM; 6: ≤ 10 nM; 7: ≤ 10 nM; 8: ≤ 10 nM

// for each molecule in input: emit IC50
1. O=C(NCc1ccc(C(F)(F)F)cc1)c1cnc(-n2cccn2)nc1O [Example 54]
2. CC(C)C(NC(=O)c1cnc(-n2cccn2)nc1O)c1ccccc1 (stereo not shown) [Example 131]

Solution:
1. ≤ 10 nM
2. ≤ 10 nM

---

- systemTested: PHD2 (Homo sapiens)
- Construct: FLAG-tagged full length PHD2 expressed in and purified from baculovirus-infected Sf9 cells; FLAG; made in house; host or cells: baculovirus-infected Sf9 cells
- assayProcedure: PHD2 / HIF-1α peptide hydroxylation assay, time resolved fluorescence (VHL complex detection)
- Type: biochemical
- conditionLabel: FLAG-tagged full length PHD2; 0.2 μM 2-oxoglutarate, 0.5 μM HIF-1α peptide; read-out: PHD2 Activity (PHD2 binding activity expressed as IC50 (nM))
Counter-ions that a name gives are not always drawn.
quantityMeasured: IC50

In the examples that follow, each entry is paired with its recorded IC50.
COc1ccc(C(NC(=O)c2cnc(-c3cccnn3)nc2O)c2ccc(OC)nc2)cn1    ≤ 10 nM
O=C(N[C@@H](C(=O)O)c1ccccc1)c1cnc(-n2cccn2)nc1O    ≤ 10 nM

Consider the following items and state reported IC50 for each.
1. Cc1csc(C(C)NC(=O)c2cnc(-n3cccn3)nc2O)n1 (stereo not shown) [Example 117, hydrochloride]
2. O=C(NCc1ccc(F)cc1)c1cnc(-c2ccccn2)nc1O
3. COc1ccc(C(NC(=O)c2cnc(-c3cccnn3)nc2O)c2ccc(F)cc2)c(OC)c1 (stereo not shown)
4. O=C(NCc1cccc2ccccc12)c1cnc(-n2cccn2)nc1O
5. O=C(NCc1ccc(Cl)nc1)c1cnc(-n2cccn2)nc1O

Solution:
["≤ 10 nM", "100 to 1000 nM", "≤ 10 nM", "10 to 100 nM", "10 to 100 nM"]
